// data source = ChEMBL document CHEMBL3882729

# targetOrTestSystem: Ephrin type-A receptor 2 (Homo sapiens)
# Sequence (P29317 whole entry, the tested form may be a part): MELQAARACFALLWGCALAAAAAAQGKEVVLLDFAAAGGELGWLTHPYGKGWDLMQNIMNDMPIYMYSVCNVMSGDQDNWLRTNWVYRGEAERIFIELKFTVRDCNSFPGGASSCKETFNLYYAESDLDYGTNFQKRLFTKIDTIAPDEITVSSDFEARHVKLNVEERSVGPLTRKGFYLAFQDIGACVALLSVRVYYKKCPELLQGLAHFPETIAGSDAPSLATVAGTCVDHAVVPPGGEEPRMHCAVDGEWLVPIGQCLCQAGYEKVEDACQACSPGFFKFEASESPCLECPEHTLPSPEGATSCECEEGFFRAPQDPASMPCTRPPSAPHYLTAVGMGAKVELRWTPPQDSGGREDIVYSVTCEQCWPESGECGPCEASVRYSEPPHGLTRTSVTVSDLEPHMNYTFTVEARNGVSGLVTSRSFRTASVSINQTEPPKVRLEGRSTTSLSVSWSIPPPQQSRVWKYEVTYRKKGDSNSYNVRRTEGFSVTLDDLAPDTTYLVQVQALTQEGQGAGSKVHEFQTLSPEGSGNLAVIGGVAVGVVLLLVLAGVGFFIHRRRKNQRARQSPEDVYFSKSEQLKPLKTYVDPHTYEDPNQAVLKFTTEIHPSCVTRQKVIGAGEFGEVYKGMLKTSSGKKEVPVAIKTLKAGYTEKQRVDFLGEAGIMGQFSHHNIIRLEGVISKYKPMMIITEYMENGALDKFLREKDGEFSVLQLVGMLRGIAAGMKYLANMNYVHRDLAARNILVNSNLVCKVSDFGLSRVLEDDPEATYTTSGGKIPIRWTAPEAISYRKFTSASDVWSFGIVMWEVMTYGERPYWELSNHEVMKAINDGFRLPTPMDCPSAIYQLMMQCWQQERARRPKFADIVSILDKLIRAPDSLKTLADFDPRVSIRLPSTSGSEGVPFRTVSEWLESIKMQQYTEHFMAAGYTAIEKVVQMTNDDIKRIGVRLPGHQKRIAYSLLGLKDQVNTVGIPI
# experimentDescription: Inhibition of recombinant human N-terminal His6-tagged EphA2 (N598 to R890 residues) expressed in baculovirus using poly-EY as substrate after 180 mins by luciferase coupled chemiluminescence assay
Please provide measured IC50 for the entries that follow.

**Query** Endpoint output: IC50 of COc1cc2c(Nc3cccc(Br)c3C)ncnc2cc1OCC1CN(C)CCO1 (centres undefined) . Value?
**Result** 50 to 1000 nM

**Query** Can you check COc1cc2c(Nc3ccc(Cl)c(Cl)c3)ncnc2cc1OCCC1CN(C)C(C)(C)CO1 (centres undefined) next?
**Result** 50 to 1000 nM

**Query** Next: COc1cc2c(Nc3ccc(Cl)c(Cl)c3)ncnc2cc1OCC1CN(C(=O)CC(=O)O)CCO1 (centres undefined)
**Result** < 50 nM

**Query** Also COc1cc2c(Nc3ccc(F)c(Cl)c3F)ncnc2cc1OC[C@H]1CN2CCOC[C@H]2CO1 , if possible.
**Result** 50 to 1000 nM

**Query** Now try COc1cc2c(Nc3ccc(Cl)c(Cl)c3)ncnc2cc1OCC1CN(CCC2CCCCC2)CCCO1 (centres undefined) .
**Result** 50 to 1000 nM

**Query** Proceed to COc1cccc(CC(=O)N2CCOC(COc3cc4ncnc(Nc5ccc(Cl)c(Cl)c5)c4cc3OC)C2)c1 (centres undefined)
**Result** 50 to 1000 nM

**Query** Quick one: COc1cc2c(Nc3ccc(Cl)c(Cl)c3)ncnc2cc1OCC1CN(C(=O)c2ccoc2)CCO1 (centres undefined)
**Result** 50 to 1000 nM

**Query** What do you get for COc1cc2c(Nc3cccc(Cl)c3F)ncnc2cc1OCC1CN(/C(N)=N/C#N)CCCO1 (centres undefined) ?
**Result** 50 to 1000 nM

**Query** Also check COc1cc2c(Nc3ccc(Cl)c(C)c3)ncnc2cc1OCC1CN(C)CCO1 (centres undefined)
**Result** 50 to 1000 nM

----------
Task for the reader: assign each of the following compounds its reported pIC50.
# targetOrTestSystem: Ephrin type-A receptor 2 (Homo sapiens)
# experimentDescription: Inhibition of recombinant human N-terminal His6-tagged EphA2 (N598 to R890 residues) expressed in baculovirus using poly-EY as substrate after 180 mins by luciferase coupled chemiluminescence assay
pIC50: −log10 of the molar value.

**Query** Would you mind telling me what pIC50 value was observed for COc1cc2c(Nc3ccc(Cl)c(Cl)c3)ncnc2cc1OCC1CN(C(C)=O)CCCO1 (configuration not stated) ?
**Result** 6.00 to 7.30

**Query** Another compound: COCCNC(=NC#N)N1CCOC(COc2cc3ncnc(Nc4ccc(Cl)c(Cl)c4)c3cc2OC)C1 (configuration not stated)
**Result** 6.00 to 7.30

**Query** Similarly, COc1cc2c(Nc3ccc(Br)c(Cl)c3F)ncnc2cc1OC[C@@H]1CN2CCC[C@H]2C(=O)N1 ?
**Result** 6.00 to 7.30

**Query** Param item: CCN1CCN(C)CC1COc1cc2ncnc(Nc3ccc(Cl)c(Cl)c3)c2cc1OC (configuration not stated)
**Result** 6.00 to 7.30

**Query** Further, for CC(C)Oc1cc2c(Nc3ccc(Cl)c(Cl)c3)ncnc2cc1OCC1CN(C)CCO1 (configuration not stated) ?
**Result** > 7.30

**Query** Can you check CCNC(=NC#N)N1CCOC(COc2cc3ncnc(Nc4ccc(Cl)c(Cl)c4)c3cc2OC)C1 (configuration not stated) next?
**Result** 6.00 to 7.30

**Query** Similarly, COc1cc2c(Nc3ccc(Br)c(C)c3)ncnc2cc1OCC1CN(C)CCO1 (configuration not stated) ?
**Result** 6.00 to 7.30

**Query** What about COc1cc2c(Nc3ccc(Cl)c(Cl)c3F)ncnc2cc1OCC1CN(C)CCO1 (configuration not stated) ?
**Result** > 7.30

**Query** Please answer likewise for CCN1CCN(CC)C(COc2cc3ncnc(Nc4ccc(Cl)c(Cl)c4)c3cc2OC)C1 (configuration not stated)
**Result** 6.00 to 7.30

**Query** Ok, now CCN1CCc2nc(COc3cc4ncnc(Nc5ccc(Cl)c(Cl)c5)c4cc3OC)sc2C1
**Result** 6.00 to 7.30

**Query** Next entry: COc1cc(Nc2ncnc3cc(OCC4CN(C)CCO4)c(OC)cc23)c(OC)cc1Cl (configuration not stated)
**Result** 6.00 to 7.30

**Query** Quick one: COc1cc2c(Nc3ccc(Cl)c(Cl)c3)ncnc2cc1OCC1CN(C(=O)CCc2ccccc2)CCO1 (configuration not stated)
**Result** 6.00 to 7.30

**Query** Record: COc1cc2c(Nc3cccc(Cl)c3F)ncnc2cc1OCC1CN(C)CCO1 (configuration not stated)
**Result** 6.00 to 7.30

**Query** Queued: COc1cc2c(Nc3ccc(Cl)c(Cl)c3)ncnc2cc1OCc1csc(CN2CCCC2)n1
**Result** 6.00 to 7.30

**Query** Repeat for the following compound: COc1cc2c(Nc3ccc(Cl)c(Cl)c3)ncnc2cc1OCC1CN(S(=O)(=O)c2ccc(C)cc2)CCO1 (configuration not stated)
**Result** 4.70 to 6.00

**Query** Now the compound COc1cc2c(Nc3cc(Cl)c(Cl)cc3F)ncnc2cc1OC[C@H]1CN2CCOC[C@H]2CO1
**Result** 6.00 to 7.30

**Query** Please answer likewise for COc1cc2c(Nc3ccc(Cl)c(Cl)c3)ncnc2cc1OCC1CN(CCCCF)CCO1 (configuration not stated)
**Result** 6.00 to 7.30

**Query** Request: COc1cc2c(Nc3ccc(Cl)c(Cl)c3)ncnc2cc1OC[C@@H]1O[C@@H](OC)[C@@H](O)[C@H](O)[C@H]1O (single isomer, unassigned)
**Result** 6.00 to 7.30

**Query** Would you kindly repeat that for COc1cc2c(Nc3ccc(Cl)c(Cl)c3)ncnc2cc1OCC1CN(C(N)=NC#N)CCO1 (configuration not stated) ?
**Result** > 7.30

**Query** What about COc1cc2c(Nc3ccc(Br)c(Cl)c3F)ncnc2cc1OC[C@@H]1CN(C)CC(=O)N1C ?
**Result** 6.00 to 7.30

**Query** Also, COc1cc2c(Nc3ccc(Br)c(Cl)c3Cl)ncnc2cc1OCC1CN(C)CCO1 (configuration not stated) please.
**Result** 6.00 to 7.30

**Query** Similarly, COc1cc2c(Nc3ccc(Br)c(Cl)c3)ncnc2cc1O[C@H]1CO[C@H]2[C@@H]1OC[C@@H]2NC(C)=O ?
**Result** 4.70 to 6.00

**Query** For CCS(=O)(=O)N1CCOC(COc2cc3ncnc(Nc4ccc(Cl)c(Cl)c4)c3cc2OC)C1 (configuration not stated) then?
**Result** > 7.30

**Query** One more compound: COc1cc2c(Nc3ccc(Br)c(Cl)c3F)ncnc2cc1OC[C@H]1CN2CCOC[C@H]2CO1
**Result** 6.00 to 7.30

**Query** Also COc1cc2c(Nc3ccc(Br)cc3F)ncnc2cc1OCC1CN(C)CCO1 (configuration not stated) , if possible.
**Result** 6.00 to 7.30

**Query** Param item: COc1cc2c(Nc3ccc(Cl)c(Cl)c3F)ncnc2cc1OC[C@@H]1CN2CCC[C@H]2C(=O)N1
**Result** 6.00 to 7.30

**Query** Now consider C=CCCCN1CCOC(COc2cc3ncnc(Nc4ccc(Cl)c(Cl)c4)c3cc2OC)C1 (configuration not stated) and answer again.
**Result** 6.00 to 7.30

**Query** Would you kindly repeat that for COc1cc2c(Nc3ccc(Cl)c(Cl)c3)ncnc2cc1OCCC1CN(C(=O)OC(C)(C)C)C(C)(C)CO1 (configuration not stated) ?
**Result** 4.70 to 6.00

**Query** Also, CCC#CCN1CCOC(COc2cc3ncnc(Nc4ccc(Cl)c(Cl)c4)c3cc2OC)C1 (configuration not stated) please.
**Result** 6.00 to 7.30

**Query** Now the same for COc1cc2c(Nc3ccc(Br)c(F)c3F)ncnc2cc1OCC1CN(C)CCO1 (configuration not stated)
**Result** 6.00 to 7.30

**Query** Also need CCC(C(=O)N1CCOC(COc2cc3ncnc(Nc4ccc(Cl)c(Cl)c4)c3cc2OC)C1)c1ccccc1 (configuration not stated) , thanks.
**Result** 4.70 to 6.00

**Query** How about this compound: COc1cc2c(Nc3ccc(Cl)c(Cl)c3)ncnc2cc1OCC1CN(S(=O)(=O)c2ccc(F)cc2)CCO1 (configuration not stated)
**Result** 4.70 to 6.00

**Query** Record: COc1cc2c(Nc3ccc(Br)cc3C)ncnc2cc1OCC1CN(C)CCO1 (configuration not stated)
**Result** 6.00 to 7.30

**Query** Try CCCCCC(=O)N1CCOC(COc2cc3ncnc(Nc4ccc(Cl)c(Cl)c4)c3cc2OC)C1 (configuration not stated) next.
**Result** 6.00 to 7.30

**Query** Subsequent entry: COc1cc2c(Nc3ccc(Br)c(Cl)c3F)ncnc2cc1OCC1CN(C)CCO1 (configuration not stated)
**Result** > 7.30

**Query** Request: COc1cc2c(Nc3cc(Cl)c(Cl)cc3F)ncnc2cc1OCC1CN(C)CCO1 (configuration not stated)
**Result** 6.00 to 7.30

**Query** Same question, COc1cc2c(Nc3ccc(F)c(Cl)c3)ncnc2cc1OCC1CN(C)CCO1 (configuration not stated) this time
**Result** 6.00 to 7.30
